Sourced from paper PMC9787607

- Procedure Details: Cytotoxicity to LLC-MK2 host cells (MTT)
- Format: cell-based
- Condition Label: rhesus monkey; screening at 50 μM, 120 h
Measurement Kind: viability at 120 h, 50 µM
Just the number plus its unit, please.

For the molecule shown here, C(=C\c1cccs1)/c1nc(-c2ccccc2)no1 [Compound 17] , give the reported viability at 120 h, 50 µM.
86.2%

====

- Procedure Details: Cytotoxicity to BALB/c mouse total splenocytes (MTT)
- Assay type: cell-based
- Condition Label: male, total splenocytes (primary), Table S2 dose-dependent, 6.4 µM
Measurement Kind: viability at 48 h, 6.4 µM (%)
The answer is to be given in %; state only the numeric part.

For the compound shown here, C(=C\c1nc(-c2ccccc2)no1)/c1cccnc1 [Compound 15] , give the reported viability at 48 h, 6.4 µM.
90.2

Further cases:
For the compound shown here, COc1cc(/C=C/c2nc(-c3cc(OC)c(OC)c(OC)c3)no2)cc(OC)c1OC [Compound 23] , give the reported viability at 48 h, 6.4 µM.
84.6

====

Recorded EC50 by entry
- Tested on: L. amazonensis promastigotes
- Procedure Details: Anti-L. amazonensis promastigote assessment (MTT)
- Format: cell-based
- Condition Label: Leishmania amazonensis; 48 h, MTT; read-out: EC50 L. amazonensis promastigotes
- Description: Promastigotes of L. amazonensis (MHOM/BR/75/Josefa) were cultured in Schneider’s insect medium (SIM) with 10% FBS. […] Absorbance was measured using a microplate reader at 570 nm. The percent cell or parasite viability was calculated by the formula: % viability = [(A − P)/(N − P)] × 100, A = absorbance of specific well, P = positive control, N = negative control. […] The results are expressed as the mean and standard deviation (SD) of three independent experiments.

Use the examples below as a reference point.
For the molecule shown here, `C(=C\c1cccs1)/c1nc(-c2ccccc2)no1` , give the reported EC50.
77.6 µM

For the molecule shown here, `C(=C\c1nc(-c2ccccc2)no1)/c1cccnc1` , give the reported EC50.
53.6 µM

# evaluate next
For the molecule shown here, `Clc1ccc(/C=C/c2nc(-c3ccccc3)no2)cc1` , give the reported EC50.
> 100 µM

====

- System: K562
- Procedure Details: MTT cytotoxicity to CML cell line K562
- Type: cell-based
- Condition Label: Homo sapiens, 72 h
Recorded pEC50 by entry
Scale explanation: pEC50 corresponds to minus log10 of a concentration expressed in moles per litre.

Use the examples below as a reference point.
For the compound shown here, `C(=C\c1nc(-c2ccccc2)no1)/c1ccc2c(c1)OCO2` , give the reported pEC50.
4.03

For the compound shown here, `C(=C\c1nc(-c2ccccc2)no1)/c1cccnc1` , give the reported pEC50.
4.56

For the compound shown here, `Clc1ccc(/C=C/c2nc(-c3ccccc3)no2)cc1` , give the reported pEC50.
4.33

For the compound shown here, `COc1cc(-c2noc(/C=C/c3ccco3)n2)cc(OC)c1OC` , give the reported pEC50.
4.14

For the compound shown here, `COc1cc(-c2noc(/C=C/c3ccc4c(c3)OCO4)n2)cc(OC)c1OC` , give the reported pEC50.
4.22

For the compound shown here, `O=[N+]([O-])c1ccc(/C=C/c2nc(-c3ccccc3)no2)cc1` , give the reported pEC50.
4.46

For the compound shown here, `COc1cc(/C=C/c2nc(-c3cc(OC)c(OC)c(OC)c3)no2)cc(OC)c1OC` , give the reported pEC50.
4.88

For the compound shown here, `COc1cc(/C=C/c2nc(-c3ccccc3)no2)cc(OC)c1OC` , give the reported pEC50.
4.74

Further cases:
For the compound shown here, `C(=C\c1nc(-c2ccccc2)no1)/c1ccco1` , give the reported pEC50.
4.28

====

- System: Lucena-1 (K562/VCR)
- Procedure Details: cells
- Type: cell-based, human
- Condition Label: Homo sapiens, Lucena 1, 72 h, read-out: EC50 Lucena-1
Measurement Kind: pEC50
Scale explanation: pEC50 corresponds to minus log10 of a concentration expressed in moles per litre.

Use the examples below as a reference point.
For the molecule shown here, `COc1cc(-c2noc(/C=C/c3ccco3)n2)cc(OC)c1OC` , give the reported pEC50.
4.12

For the molecule shown here, `O=[N+]([O-])c1ccc(/C=C/c2nc(-c3ccccc3)no2)cc1` , give the reported pEC50.
4.34

For the molecule shown here, `COc1cccc(/C=C/c2nc(-c3cc(OC)c(OC)c(OC)c3)no2)c1` , give the reported pEC50.
4.14

For the molecule shown here, `C(=C\c1nc(-c2ccccc2)no1)/c1cccnc1` , give the reported pEC50.
4.57

For the molecule shown here, `COc1cc(-c2noc(/C=C/c3ccccc3)n2)cc(OC)c1OC` , give the reported pEC50.
4.16

Further cases:
For the molecule shown here, `Fc1ccc(/C=C/c2nc(-c3ccccc3)no2)cc1` , give the reported pEC50.
4.22

For the molecule shown here, `C(=C\c1cccs1)/c1nc(-c2ccccc2)no1` , give the reported pEC50.
4.14

For the molecule shown here, `C(=C\c1nc(-c2ccccc2)no1)/c1ccc2c(c1)OCCO2` , give the reported pEC50.
4.19

For the molecule shown here, `Clc1ccc(/C=C/c2nc(-c3ccccc3)no2)cc1` , give the reported pEC50.
4.36

For the molecule shown here, `COc1cc(/C=C/c2nc(-c3ccccc3)no2)cc(OC)c1OC` , give the reported pEC50.
4.36

====

Recorded EC50 at 48 h by entry
- Procedure Details: Cytotoxicity to BALB/c mouse total splenocytes (MTT)
- Format: cell-based
- Condition Label: male, primary total splenocytes, 48 h, MTT, read-out: EC50 murine splenocytes
The answer is to be given in µM; state only the numeric part.

For the molecule shown here, `COc1cc(/C=C/c2nc(-c3cc(OC)c(OC)c(OC)c3)no2)cc(OC)c1OC` , give the reported EC50 at 48 h.
33.3

# evaluate next
For the molecule shown here, `C(=C\c1nc(-c2ccccc2)no1)/c1cccnc1` , give the reported EC50 at 48 h.
52.2

====

- Tested on: L. amazonensis amastigotes
- Procedure Details: Anti-L. amazonensis amastigote assessment in RAW 264.7 macrophages
- Assay type: cell-based, Leishmania amazonensis
- Condition Label: host cell/parasite EC50 ratio, RAW/L. amazonensis
Recorded S.I. (selectivity index) by entry
Note: the reply should be a number with no unit written.

Fill in the recorded S.I. (selectivity index) for this compound, with L. amazonensis amastigotes as test system: C[C@@H]1[C@H](O)[C@@H](C)/C=C/C=C/C=C/C=C/C=C/C=C/C=C/[C@H](O[C@@H]2O[C@H](C)[C@@H](O)[C@H](N)[C@@H]2O)C[C@@H]2O[C@](O)(C[C@@H](O)C[C@@H](O)[C@H](O)CC[C@@H](O)C[C@@H](O)CC(=O)O[C@H]1C)C[C@H](O)[C@H]2C(=O)O [Amphotericin B, reference compound]
65.2

# evaluate next
Fill in the recorded S.I. (selectivity index) for this compound, with L. amazonensis amastigotes as test system: `COc1cc(-c2noc(/C=C/c3ccc4c(c3)OCO4)n2)cc(OC)c1OC`
2.3

====

- Tested on: FEPS (K562/DNR)
- Procedure Details: MTT cytotoxicity to MDR CML cell line FEPS
- Format: cell-based, human
- Condition Label: (EC50 MDR cells)/(EC50 parental cells), FEPS/K562
Recorded RR (relative resistance) FEPS by entry
Note: the reply should be a number with no unit written.

Use the examples below as a reference point.
Fill in the recorded RR (relative resistance) FEPS for this compound, with FEPS (K562/DNR) as test system: C(=C\c1nc(-c2ccccc2)no1)/c1ccco1 [Compound 16]
1.03

Fill in the recorded RR (relative resistance) FEPS for this compound, with FEPS (K562/DNR) as test system: COc1cc(-c2noc(/C=C/c3ccc4c(c3)OCO4)n2)cc(OC)c1OC [Compound 24]
0.15

Fill in the recorded RR (relative resistance) FEPS for this compound, with FEPS (K562/DNR) as test system: COc1cc(/C=C/c2nc(-c3ccccc3)no2)cc(OC)c1OC [Compound 12]
1.42

Fill in the recorded RR (relative resistance) FEPS for this compound, with FEPS (K562/DNR) as test system: COc1cc(/C=C/c2nc(-c3cc(OC)c(OC)c(OC)c3)no2)cc(OC)c1OC [Compound 23]
0.42

Fill in the recorded RR (relative resistance) FEPS for this compound, with FEPS (K562/DNR) as test system: C(=C\c1nc(-c2ccccc2)no1)/c1cccnc1 [Compound 15]
0.68

Fill in the recorded RR (relative resistance) FEPS for this compound, with FEPS (K562/DNR) as test system: C(=C\c1nc(-c2ccccc2)no1)/c1ccc2c(c1)OCO2 [Compound 13]
0.74

Fill in the recorded RR (relative resistance) FEPS for this compound, with FEPS (K562/DNR) as test system: O=[N+]([O-])c1ccc(/C=C/c2nc(-c3ccccc3)no2)cc1 [Compound 20]
1.35

# evaluate next
Fill in the recorded RR (relative resistance) FEPS for this compound, with FEPS (K562/DNR) as test system: COc1cc(-c2noc(/C=C/c3ccco3)n2)cc(OC)c1OC [Compound 25]
0.74
